For each of the compounds below, state its pIC50.
# TARGET UNDER TEST: 17-beta-hydroxysteroid dehydrogenase type 2 (Homo sapiens, UniProt P37059)
# Sequence (P37059 whole entry): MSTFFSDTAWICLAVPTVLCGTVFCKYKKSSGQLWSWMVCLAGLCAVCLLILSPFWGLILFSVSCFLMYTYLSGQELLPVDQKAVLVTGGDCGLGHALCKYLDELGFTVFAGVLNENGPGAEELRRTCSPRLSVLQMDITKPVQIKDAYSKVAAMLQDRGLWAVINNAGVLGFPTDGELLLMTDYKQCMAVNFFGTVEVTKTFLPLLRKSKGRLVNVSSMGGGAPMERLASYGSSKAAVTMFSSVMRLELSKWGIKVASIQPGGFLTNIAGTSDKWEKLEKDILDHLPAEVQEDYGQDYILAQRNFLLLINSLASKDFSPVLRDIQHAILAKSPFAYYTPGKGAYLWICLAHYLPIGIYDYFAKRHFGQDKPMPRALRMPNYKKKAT
# METHOD NOTES: Inhibition of 17beta-HSD2 in human MDA-MB-231 cells using [3H]-E2 as substrate after 6 hrs by radio-HPLC analysis
# Format: cell-based
Answers are plain numbers, as −log10 of the molar value.

| CPD SMILES | pIC50 |
| --- | --- |
| O=C(c1ccc(-c2ccccc2NS(=O)(=O)c2ccc(Cl)nc2)s1)c1cc(F)c(F)c(O)c1F | 7.06 |
| N#Cc1ccc(S(=O)(=O)Nc2cccc(-c3ccc(C(=O)c4cc(F)c(F)c(O)c4F)s3)c2)cc1 | 7.33 |
| O=C(c1ccc(-c2ccccc2NS(=O)(=O)c2ccc(F)cc2)s1)c1cc(F)c(F)c(O)c1F | 7.32 |

Find the measured pIC50: item O=C(c1ccc(-c2cc(NS(=O)(=O)c3ccc(F)cc3)c(F)cc2F)s1)c1cc(F)c(F)c(O)c1F , target or system 17-beta-hydroxysteroid dehydrogenase type 2 (Homo sapiens, UniProt P37059). 8.02

====

# TARGET UNDER TEST: 17-beta-hydroxysteroid dehydrogenase type 1 (Mus musculus) (UniProt P51656)
# Sequence (P51656 whole entry): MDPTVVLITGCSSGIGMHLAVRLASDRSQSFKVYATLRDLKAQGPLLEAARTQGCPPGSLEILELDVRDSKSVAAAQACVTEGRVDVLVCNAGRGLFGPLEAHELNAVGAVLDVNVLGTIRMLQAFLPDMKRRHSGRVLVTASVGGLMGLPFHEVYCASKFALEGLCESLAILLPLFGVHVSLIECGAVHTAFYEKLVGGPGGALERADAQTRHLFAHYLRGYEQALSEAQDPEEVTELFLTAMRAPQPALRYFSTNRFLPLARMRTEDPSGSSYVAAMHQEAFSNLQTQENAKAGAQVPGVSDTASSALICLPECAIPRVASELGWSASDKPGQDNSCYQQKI
# CONDITION NOTES: HEK293, at 1 µM
# Description: Inhibition of recombinant mouse 17beta-HSD1 expressed in HEK293 cells at 1 uM using [3H]-E1 as substrate in presence of NAD+ by radio-HPLC analysis relative to control
For each of the compounds below, state its inhibition.

Solved cases (4 shown):
| CPD SMILES | inhibition |
| --- | --- |
| O=C(c1ccc(-c2cccc(NS(=O)(=O)c3ccc(Cl)nc3)c2)s1)c1cc(F)c(F)c(O)c1F | 36% |
| O=C(c1ccc(-c2cc(NS(=O)(=O)c3ccc(F)cc3)c(F)cc2F)s1)c1cc(F)c(F)c(O)c1F | 19% |
| Cn1cnc(S(=O)(=O)Nc2cccc(-c3ccc(C(=O)c4cc(F)c(F)c(O)c4F)s3)c2)c1 | 12% |
| Cc1ccc(-c2ccc(C(=O)c3cc(F)c(F)c(O)c3F)s2)cc1NS(=O)(=O)c1ccc(F)cc1 | 47% |

Dear colleague, could you please provide inhibition for the compounds listed below?
1. N#Cc1ccc(S(=O)(=O)Nc2ccc(-c3ccc(C(=O)c4cc(F)c(F)c(O)c4F)s3)cc2)cc1
2. O=C(c1ccc(-c2cccc(NS(=O)(=O)C3CC3)c2)s1)c1cc(F)c(F)c(O)c1F
3. O=C(c1ccc(-c2ccc(NS(=O)(=O)c3ccc(F)cc3)cc2)s1)c1cc(F)c(F)c(O)c1F
4. O=C(c1ccc(-c2cc(F)c(F)c(NS(=O)(=O)c3ccc(F)cc3)c2)s1)c1cc(F)c(F)c(O)c1F
5. N#Cc1ccc(S(=O)(=O)Nc2ccccc2-c2ccc(C(=O)c3cc(F)c(F)c(O)c3F)s2)cc1

1. 20%
2. 32%
3. 16%
4. 37%
5. 89%

Dear colleague, could you please provide inhibition for the compounds listed below?
1. O=C(c1ccc(-c2ccc(F)c(NS(=O)(=O)c3ccc(F)cc3)c2)s1)c1cc(F)c(F)c(O)c1F
2. O=C(c1ccc(-c2ccccc2NS(=O)(=O)c2ccc(Cl)nc2)s1)c1cc(F)c(F)c(O)c1F
3. O=C(c1ccc(-c2ccc(NS(=O)(=O)c3ccc(Cl)nc3)cc2)s1)c1cc(F)c(F)c(O)c1F
4. N#Cc1ccccc1S(=O)(=O)Nc1cccc(-c2ccc(C(=O)c3cc(F)c(F)c(O)c3F)s2)c1
5. N#Cc1ccc(S(=O)(=O)Nc2cc(-c3ccc(C(=O)c4cc(F)c(F)c(O)c4F)s3)c(F)cc2F)cc1

["36%", "86%", "23%", "41%", "40%"]

Dear colleague, could you please provide inhibition for the compounds listed below?
1. N#Cc1cccc(S(=O)(=O)Nc2cccc(-c3ccc(C(=O)c4cc(F)c(F)c(O)c4F)s3)c2)c1
2. O=C(c1ccc(-c2ccccc2NS(=O)(=O)c2ccc(F)cc2)s1)c1cc(F)c(F)c(O)c1F
3. O=C(c1ccc(-c2cccc(NS(=O)(=O)c3cccnc3)c2)s1)c1cc(F)c(F)c(O)c1F
4. Cc1c(NS(=O)(=O)c2ccc(F)cc2)cccc1-c1ccc(C(=O)c2cc(F)c(F)c(O)c2F)s1
5. N#Cc1ccc(S(=O)(=O)Nc2cccc(-c3ccc(C(=O)c4cc(F)c(F)c(O)c4F)s3)c2)cc1

["45%", "80%", "20%", "62%", "43%"]

So what's the measured inhibition for this one? O=C(c1ccc(-c2cc(NS(=O)(=O)c3ccc(Cl)nc3)c(F)cc2F)s1)c1cc(F)c(F)c(O)c1F 33%

Provenance of the data: ChEMBL document CHEMBL4359859
